pIC50: −log10 of the molar value.
Below: compounds with pIC50 recorded for Proto-oncogene tyrosine-protein kinase receptor Ret (Homo sapiens, UniProt P07949) in separate published works.

Use the examples below as a reference point.
COc1cc(-c2nn(-c3cccc(N(C)C(=O)/C=C/CN(C)C4CCC4)c3)c3ncnc(N)c23)ccc1C ... < 6.00
Oc1ccc(F)c(C(O)c2c[nH]c3ncc(-c4cccnc4)cc23)c1F (stereo not shown) ... ≥ 5.00
COc1cc(O)cc(Cc2c[nH]c3ncc(-c4ccsc4)cc23)c1 ... ≥ 5.00

Which pIC50 value is on record for Cc1cc(Nc2cc(C)c(F)c(N3CC(C(=O)N[C@@H](C)c4ccc(-n5cc(F)cn5)nc4)C3)n2)n[nH]1 ?
> 8.00

Which pIC50 value is on record for Oc1cccc(Cc2c[nH]c3ncc(-c4cccnc4)cc23)c1F ?
≥ 5.00

Give its pIC50 value. Item: COC1(C(=O)NCc2ccc(-n3nc(C)cc3C)nc2)CN(c2nc(C)cc(Nc3cc(C)[nH]n3)n2)C1
7.00 to 8.00

Find the recorded pIC50 belonging to CCC1(C(=O)N[C@@H](C)c2ccc(-n3cccn3)nc2)CN(c2nc(C)cc(Nc3cc(C)[nH]n3)n2)C1 and report it.
> 8.00

Please give the measured pIC50 for this compound: NC(=O)c1ccc(-c2cnc3[nH]cc(C(=O)c4ccc5nsnc5c4)c3c2)cc1
≥ 5.00

Give its pIC50 value. Item: COc1ccc(CN2C3CC2CN(c2ccc(-c4cc(OCC(C)(C)O)cc5nccc(C#N)c45)cn2)C3)cn1
6.65

If you can, please state the reported pIC50 value of COC1(C(=O)N[C@@H](C)c2ccc(-n3cccn3)nc2)CCN(c2nc(C)cc(Nc3cc(C)[nH]n3)n2)CC1 .
> 8.00

Please look up its pIC50: Cc1ccc(F)cc1C(=O)c1c[nH]c2nccc(-c3cccc(N)c3)c12
≥ 5.00

Which pIC50 is listed for Cc1cc(Nc2cc(C)[nH]n2)nc(N2CCC(C(=O)N[C@@H](C)c3ccc(-n4cc(F)cn4)nc3)CC2)c1 ?
> 8.00

Quick one: pIC50 for Nc1cc(Oc2ccc(NC(=O)Nc3cc(CN4CCC4)cc(C(F)(F)F)c3)cc2)ncn1 ?
7.08

Endpoint output: pIC50 of CCOc1cc(-c2ccc(CC(=O)Nc3cc(-c4nn[nH]n4)cc(C(F)(F)F)c3)c(F)c2)c[nH]c1=O . Value?
> 7.00

What measured pIC50 goes with CC(C)C(=O)NC12CC3CC(C1)N(c1ccc(-c4cc(OCC(C)(C)O)cn5ncc(C#N)c45)cn1)C(C3)C2 ?
≥ 8.00

Looking for the measured pIC50 of Oc1ccc(Cc2c[nH]c3ncc(-c4ccsc4)cc23)cc1O , can you help?
≥ 5.00

---

Several publications report pIC50 on Proto-oncogene tyrosine-protein kinase receptor Ret (Homo sapiens); those values are gathered here.
pIC50: −log10 of the molar value.

O=C(c1cccc(O)c1)c1c[nH]c2ncc(-c3cccs3)cc12 ... ≥ 5.00
Cn1cc(-c2cc(-c3ccc(N4C[C@@H]5CN(S(=O)(=O)c6c(F)cccc6Cl)C[C@@H]5C4)nc3)c3c(C#N)cnn3c2)cn1 ... ≥ 8.00
CCOc1cc(-c2cnc(N3C4CC5CC3CC(NC(=O)c3ccc(OC)nc3)(C5)C4)cn2)c2c(C#N)cnn2c1 ... ≥ 8.00
NC(=O)c1ccc(-c2ccnc3[nH]cc(C(=O)c4ccccc4F)c23)cc1 ... ≥ 5.00
Cc1cc(Nc2cc(C)[nH]n2)nc(-c2cnc(C(=O)N[C@@H](C)c3ccc(-n4cc(F)cn4)nc3)c(F)c2)n1 ... > 8.00

Report pIC50 for Cc1cc(C(=O)c2c[nH]c3ncc(-c4cccc(N)c4)cc23)nn1C tested on Proto-oncogene tyrosine-protein kinase receptor Ret (Homo sapiens).
≥ 5.00

// fetch Proto-oncogene tyrosine-protein kinase receptor Ret (Homo sapiens) pIC50 for Cc1ccccc1NC(=O)c1cccc2[nH]c(-c3n[nH]c4ncc(-c5cncc6ccccc56)cc34)nc12
~5.00

---

pIC50: −log10 of the molar value.
Literature compilation of pIC50 measurements on Proto-oncogene tyrosine-protein kinase receptor Ret (Homo sapiens, UniProt P07949).

Recorded pIC50, per entry:
CO[C@]1(C(=O)N[C@@H](C)c2ccc(-n3cc(F)cn3)nc2)CC[C@H](c2nc(Nc3cc(C)[nH]n3)ccc2C#N)CC1 ... 8.70
Cc1cc(Nc2cc(C)c(C#N)c(N3CC(F)(C(=O)NCc4ccc(-n5cc(F)cn5)nc4)C3)n2)n[nH]1 ... > 8.00
COC1(C(=O)N[C@@H](C)c2ccc(-n3cc(F)cn3)nc2)CCN(c2nccc(Nc3cc(C)[nH]n3)n2)CC1 ... > 8.00

Recall the recorded pIC50 for CC(C)(O)c1ccc(-c2cc(-c3cnc(N4C5CC6CC4CC(NC(=O)c4ncccc4Cl)(C6)C5)cn3)c3c(C#N)cnn3c2)nc1 with Proto-oncogene tyrosine-protein kinase receptor Ret (Homo sapiens, UniProt P07949) and state it.
8.85

Entry O=C(NC1CCCC1)c1cccc2[nH]c(-c3n[nH]c4ncc(-c5cncc6ccccc56)cc34)nc12 , system Proto-oncogene tyrosine-protein kinase receptor Ret (Homo sapiens, UniProt P07949): what pIC50 was measured?
< 6.00

Any idea what pIC50 came out for O=C(c1cc(F)ccc1F)c1c[nH]c2nccc(-c3ccc(Cl)cc3)c12 on Proto-oncogene tyrosine-protein kinase receptor Ret (Homo sapiens, UniProt P07949)?
≥ 5.00

---

The entries below pair compounds with IC50 values for Proto-oncogene tyrosine-protein kinase receptor Ret (Homo sapiens), as found in several publications.

Please state recorded IC50 (tested on Proto-oncogene tyrosine-protein kinase receptor Ret (Homo sapiens)) of Cn1cc(-c2cc(-c3ccc(N4C[C@@H]5[C@H](C4)[C@H]5NC(=O)c4cc(F)ccc4Cl)nc3)c3c(C#N)cnn3c2)cn1
≤ 10 nM

Lookup: IC50 / Proto-oncogene tyrosine-protein kinase receptor Ret (Homo sapiens) / O=C(O)/C=C/c1cccc(-c2ccnc3[nH]cc(C(=O)c4ccccc4F)c23)c1
≤ 10000 nM

Please tell me: IC50 of CCOc1cc(Oc2ccc(NC(=O)Nc3ccc(CN4CCN(CC)CC4)c(C(F)(F)F)c3)cc2)c[nH]c1=O , system Proto-oncogene tyrosine-protein kinase receptor Ret (Homo sapiens)?
< 100 nM

Notebook entry, Proto-oncogene tyrosine-protein kinase receptor Ret (Homo sapiens) assay: IC50 of CCOc1cc(-c2ccc(CC(=O)Nc3ccc(CC(F)(F)CO)c(C(F)(F)F)c3)c(F)c2)c[nH]c1=O = ?
< 100 nM

---

Collected set of IC50 measured with Proto-oncogene tyrosine-protein kinase receptor Ret (Homo sapiens, UniProt P07949) across studies.

// worked examples, IC50 included
Fc1ccc(-c2c(CNCc3ccccc3)[nH]c3ncccc23)cc1 ... ≤ 10000 nM
Cn1ccc(-c2cc(-c3ccc(N4C[C@@H]5C[C@@](C)(NC(=O)c6ncccc6Cl)C[C@@H]5C4)nc3)c3c(C#N)cnn3c2)n1 ... ≤ 10 nM

Item: Cc1cc(C(=O)c2c[nH]c3nccc(-c4ccc(C(N)=O)cc4)c23)no1 Test system: Proto-oncogene tyrosine-protein kinase receptor Ret (Homo sapiens, UniProt P07949) Read-out: IC50 Value: ?
≤ 10000 nM

Please state recorded IC50 (tested on Proto-oncogene tyrosine-protein kinase receptor Ret (Homo sapiens, UniProt P07949)) of CCOc1cc(-c2cnc(N3C[C@@H]4[C@H](C3)[C@H]4NC(=O)c3ncccc3Cl)cn2)c2c(C#N)cnn2c1
50 to 100 nM

Form entry - test system: Proto-oncogene tyrosine-protein kinase receptor Ret (Homo sapiens, UniProt P07949); read-out: IC50; molecule: Cc1cc(Nc2cc(C)[nH]n2)nc(N2CCC(CO)(C(=O)N[C@@H](C)c3ccc(-n4cc(F)cn4)nc3)CC2)c1
< 10 nM

Please state recorded IC50 (tested on Proto-oncogene tyrosine-protein kinase receptor Ret (Homo sapiens, UniProt P07949)) of Cc1cc(Nc2cc(C)[nH]n2)nc(N2CCC(O)(C(=O)NCc3ccc(-n4nc(C)cc4C)nc3)CC2)c1
< 10 nM

For Proto-oncogene tyrosine-protein kinase receptor Ret (Homo sapiens, UniProt P07949), provide IC50 of CS(=O)(=O)c1cccc(-c2ccnc3[nH]cc(C(=O)c4cc(F)ccc4F)c23)c1 please.
≤ 10000 nM

---

Reported IC50 against Proto-oncogene tyrosine-protein kinase receptor Ret (Homo sapiens), gathered from multiple publications, appears below.

# count of solved cases: 10
Cc1cc(Nc2cc(C)[nH]n2)nc([C@@H]2CC[C@@H](C(=O)NCc3ccc(-n4cccn4)nc3)[C@@H](C)C2)n1 ... > 100 nM
Cc1ccc(F)cc1C(=O)c1c[nH]c2ncc(-c3cccc(NS(C)(=O)=O)c3)cc12 ... ≤ 10000 nM
CCOc1cc(-c2ccc(NC(=O)Nc3ccc(OC4(C)COC4)c(C(F)(F)F)c3)c(C3CC3)n2)c[nH]c1=O ... < 100 nM
COCCOc1cc(=O)[nH]cc1-c1ncc(NC(=O)Nc2cc(C(=O)NCCN(C)C)cc(C(F)(F)F)c2)c(C)n1 ... < 100 nM
CO[C@]1(C(=O)N[C@@H](C)c2ccc(-n3cc(F)cn3)nc2)CC[C@@H](c2nc(Nc3cc(C)[nH]n3)cc3cccnc32)CC1 ... 241 nM
CNc1ncc2c(n1)N1C(=NC[C@@H]1C)C(c1cc(NC(=O)c3cc(C(F)(F)F)ccn3)ccc1C)=C2 ... < 100 nM
Cc1cc(Nc2cc(C)[nH]n2)nc([C@]2(O)C[C@@](C)(C(=O)N[C@@H](C)c3ccc(-n4cc(F)cn4)nc3)C2)c1 ... < 1 nM
COc1cc(-c2ccc(NC(=O)Nc3ccc(OC4(C)COC4)c(C(F)(F)F)c3)c(C)n2)c[nH]c1=O ... < 100 nM
CCOc1cc(-c2ncc(NC(=O)Nc3cc(C(F)(F)F)cc(S(=O)(=O)NCCN(C)C)c3)c(C)n2)c[nH]c1=O ... < 100 nM
CCOc1cc(-c2ccc(NC(=O)Nc3ccc(OC(C)(C)CO)c(C(F)(F)F)c3)c(F)c2)c[nH]c1=O ... < 100 nM

// returns reported IC50 for input NC(=O)c1ccc(-c2cnc3[nH]cc(C(=O)c4cccc(Cl)c4Cl)c3c2)cc1
≤ 10000 nM

Could you tell me which IC50 is on file for CCOc1cc(-c2ccc(NC(=O)Nc3ccc(OC4(C)CCN(C)C4)c(C(F)(F)F)c3)c(F)c2)c[nH]c1=O (centres unmarked) ?
< 100 nM

May I ask what IC50 has been recorded for Cc1cc(-c2ccc(=O)[nH]c2)ccc1NC(=O)Nc1ccc(OC2(C)COC2)c(C(F)(F)F)c1 ?
< 100 nM

IC50 for CNc1ncc2c(n1)N1CCN=C1C(c1cc(NC(=O)c3cc(C(F)(F)F)ccn3)ccc1F)=C2C ?
100 to 10000 nM

Would you mind telling me what IC50 value was observed for CC(C)NCc1cccc2[nH]c(-c3n[nH]c4ncc(-c5cncc6ccccc56)cc34)nc12 ?
> 100000 nM

Reported IC50, molecule Cc1cc(Nc2cc(C)[nH]n2)nc([C@@]2(O)CC[C@@H](C(=O)N[C@@H](C)c3ccc(-n4cc(F)cn4)nc3)C2)c1 : ____
< 10 nM

Consider the molecule shown here: CCOc1cc(-c2ccc(NC(=O)Nc3ccc(Cl)c(C(F)(F)F)c3)c(F)c2)c[nH]c1=O What is its recorded IC50?
< 100 nM

Consider the molecule shown here: CN1CCN(Cc2ccc(C(=O)Nc3ccc(Cc4c[nH]c5ncccc45)cc3)cc2)CC1 What is its recorded IC50?
≤ 10000 nM

For the molecule CC(C)(O)COc1cc(-c2ccc(N3C4CC5CC3CC(NS(C)(=O)=O)(C5)C4)nc2)c2c(C#N)cnn2c1 , what IC50 is on record?
≤ 10 nM

Item under review: CNc1ncc2c(n1)N1CCN=C1C(c1cc(NC(=O)c3cc(C(F)(F)F)ccn3)ccc1Cl)=C2 . Reported IC50?
< 100 nM
